assay: solvent given as SMILES; conditions: in CS(C)=O
measuredQuantity: emission maximum (nm)
Unit nm implied. Number only.

{"chemicalString": "CCCCCCCCC1(CCCCCCCC)c2cc(-c3ccc(C(F)(F)F)cc3)ccc2-c2ccc(N(c3ccc(-n4c5ccccc5c5ccccc54)cc3)c3ccc4c(c3)C(CCCCCCCC)(CCCCCCCC)c3cc(-c5ccc(C(F)(F)F)cc5)ccc3-4)cc21", "measuredQuantity": "emission maximum", "measurement": 486}
{"chemicalString": "Clc1cccc(-c2nc3sc4ccccc4c3s2)c1", "measuredQuantity": "emission maximum", "measurement": 420}
{"chemicalString": "COc1cc(OC)cc(C2=C3C(C)=C(I)C(C)=[N+]3[B-](F)(F)n3c(/C=C/c4ccsc4)c(I)c(C)c32)c1", "measuredQuantity": "emission maximum", "measurement": 621}

Query: I'd like to know its emission maximum. The compound in question is O=C1/C(=C2\Sc3ccccc3C2=O)Sc2ccccc21
Response: 614
